Measured on: UGT1A9 (Homo sapiens, UniProt O60656)
Sequence (O60656 26-530): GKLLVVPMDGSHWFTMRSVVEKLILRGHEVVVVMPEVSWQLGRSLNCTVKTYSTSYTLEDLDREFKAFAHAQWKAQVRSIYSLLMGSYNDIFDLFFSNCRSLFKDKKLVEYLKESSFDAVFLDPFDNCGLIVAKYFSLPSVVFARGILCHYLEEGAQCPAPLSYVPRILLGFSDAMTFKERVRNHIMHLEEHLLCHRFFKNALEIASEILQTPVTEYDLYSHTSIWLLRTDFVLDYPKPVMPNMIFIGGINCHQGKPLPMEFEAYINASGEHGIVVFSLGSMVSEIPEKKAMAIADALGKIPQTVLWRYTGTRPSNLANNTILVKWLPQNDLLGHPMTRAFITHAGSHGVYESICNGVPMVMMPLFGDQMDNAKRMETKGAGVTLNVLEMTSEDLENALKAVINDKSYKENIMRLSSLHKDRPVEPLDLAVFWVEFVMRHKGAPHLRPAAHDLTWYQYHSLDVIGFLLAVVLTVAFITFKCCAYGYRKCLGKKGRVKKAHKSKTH
Measurement description: in vitro
Test parameters: pH 7.5, % of control metabolism, raloxifene G1
Overview of recorded activity at 15 min, 25 µM for various molecules
Property: activity at 15 min, 25 µM (%)

> print(dat)
                                   molecule                            measured.on  recorded.measurement
1  COc1cc(C2Oc3cc([C@H]4Oc5cc(O)cc(O)c5C(=O)[C@@H]4O)ccc3OC2CO)ccc1O (some centres unmarked)  UGT1A9 (Homo sapiens, UniProt O60656)                    74
2                       C=CCc1ccc(O)c(OC)c1  UGT1A9 (Homo sapiens, UniProt O60656)                    56

###

Each entry below carries its reported residual metabolism (% of control), 2ME2 MG1.
Tested on: UGT enzymes of pooled human jejunum microsomes
Measurement description: Inhibition of 2ME2 glucuronidation (MG1) in pooled human jejunum microsomes
Type: biochemical
Test parameters: jejunum HJ61; 2ME2 50 μM; inhibitor 100 μM
Property: residual metabolism (% of control), 2ME2 MG1

Compound	Recorded measurement
O=C(O)Cc1ccccc1Nc1c(Cl)cccc1Cl [Diclofenac, reference compound]	97 (4) %
O=C1C[C@@H](c2ccc(O)cc2)Oc2cc(O)cc(O)c21	79 (5) %
O=c1c(O)c(-c2ccc(O)c(O)c2)oc2cc(O)cc(O)c12	19 (1) %
O=C(O[C@@H]1Cc2c(O)cc(O)cc2O[C@@H]1c1ccc(O)c(O)c1)c1cc(O)c(O)c(O)c1 [Epicatechin gallate]	47 (2) %
C=CCc1ccc(O)c(OC)c1	104 (4) %
CC1CCC(C(C)C)C(O)C1 (centres unmarked)	125 (7) %
O=C(O)c1cc(-c2ccc(F)cc2F)ccc1O [Diflunisal, reference compound]	82 (2) %
C#C[C@]1(O)CC[C@H]2[C@@H]3CCc4cc(O)ccc4[C@H]3CC[C@@]21C [17-α-Ethinylestradiol, 17-α-ethinylestradiol, reference compound]	99 (2) %

###

System: UGT enzymes of human liver microsomes
Construct: percentage of control metabolism, 7-HFC glucuronidation; percentage of control metabolism, 7-HFC glucuronidation
Measurement description: Inhibition of 7-HFC glucuronidation in human liver microsomes
Type: biochemical
Test parameters: inhibitor 100 μM
Listing of recorded percentage of control metabolism, 7-HFC glucuronidation by entry.
Property: percentage of control metabolism, 7-HFC glucuronidation

Compound	Recorded measurement
O=C(OC[C@H]1O[C@@H](OC(=O)c2cc(O)c(O)c(OC(=O)c3cc(O)c(O)c(O)c3)c2)[C@H](OC(=O)c2cc(O)c(O)c(OC(=O)c3cc(O)c(O)c(O)c3)c2)[C@@H](OC(=O)c2cc(O)c(O)c(OC(=O)c3cc(O)c(O)c(O)c3)c2)[C@@H]1OC(=O)c1cc(O)c(O)c(OC(=O)c2cc(O)c(O)c(O)c2)c1)c1cc(O)c(O)c(OC(=O)c2cc(O)c(O)c(O)c2)c1	0 (0) %
Cc1cc(=O)oc2cc(O)ccc12 [4-Methylumbelliferone, reference compound]	78 (1) %
O=C(O[C@@H]1Cc2c(O)cc(O)cc2O[C@@H]1c1cc(O)c(O)c(O)c1)c1cc(O)c(O)c(O)c1 [Epigallocatechin gallate]	67 (1) %
CCCCCCCCC(=O)NCc1ccc(O)c(OC)c1 [N-Vanillylnonanamide]	69 (1) %
Cc1ccc(C(C)C)cc1O	79 (1) %

###

Measured on: UGT1A1 (Homo sapiens)
Sequence (P22309 26-533): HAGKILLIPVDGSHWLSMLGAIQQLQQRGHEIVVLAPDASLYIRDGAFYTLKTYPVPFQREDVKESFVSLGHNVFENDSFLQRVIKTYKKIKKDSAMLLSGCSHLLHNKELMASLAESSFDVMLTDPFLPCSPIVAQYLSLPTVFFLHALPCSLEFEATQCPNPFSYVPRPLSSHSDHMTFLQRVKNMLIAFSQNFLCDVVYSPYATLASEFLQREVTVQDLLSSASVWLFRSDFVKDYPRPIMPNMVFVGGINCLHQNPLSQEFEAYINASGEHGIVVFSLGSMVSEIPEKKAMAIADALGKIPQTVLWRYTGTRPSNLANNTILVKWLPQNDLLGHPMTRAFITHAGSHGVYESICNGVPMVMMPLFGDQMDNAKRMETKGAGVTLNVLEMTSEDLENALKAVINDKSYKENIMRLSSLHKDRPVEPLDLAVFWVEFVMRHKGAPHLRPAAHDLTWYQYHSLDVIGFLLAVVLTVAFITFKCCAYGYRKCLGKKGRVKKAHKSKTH
Measurement description: in vitro
Test parameters: pH 7.5, Inhibition of raloxifene glucuronidation, G2, UGT1A1
activity at 15 min, 50 µM values for the compounds below.
Property: activity at 15 min, 50 µM (%)

> print(dat)
                                   compound                   property  recorded.measurement
1  CCCOC(=O)c1cc(O)c(O)c(O)c1 [Propyl gallate]  activity at 15 min, 50 µM                    73
2  O=c1c(O)c(-c2ccc(O)c(O)c2)oc2cc(O)cc(O)c12 [Quercetin]  activity at 15 min, 50 µM                     3
3  O=C(O[C@@H]1Cc2c(O)cc(O)cc2O[C@@H]1c1ccc(O)c(O)c1)c1cc(O)c(O)c(O)c1 [Epicatechin gallate]  activity at 15 min, 50 µM                    25
4  COc1cc(C2Oc3cc([C@H]4Oc5cc(O)cc(O)c5C(=O)[C@@H]4O)ccc3OC2CO)ccc1O (stereo partly shown) [Silibinin]  activity at 15 min, 50 µM                     7
5  COc1c(C)c2c(c(O)c1C/C=C(\C)CCC(=O)O)C(=O)OC2 [Mycophenolic acid, reference compound]  activity at 15 min, 50 µM                    89
6  O=C(O)Cc1ccccc1Nc1c(Cl)cccc1Cl [Diclofenac, reference compound]  activity at 15 min, 50 µM                    73
7  O=C(O)c1cc(-c2ccc(F)cc2F)ccc1O [Diflunisal, reference compound]  activity at 15 min, 50 µM                    33

###

Measured on: UGT enzymes of human liver microsomes (Homo sapiens, UniProt P16662)
Construct: residual metabolism (percentage of control), zidovudine glucuronidation; other: liver lot 062101; residual metabolism (percentage of control), zidovudine glucuronidation; residual metabolism (percentage of control)
Sequence (P16662 1-529): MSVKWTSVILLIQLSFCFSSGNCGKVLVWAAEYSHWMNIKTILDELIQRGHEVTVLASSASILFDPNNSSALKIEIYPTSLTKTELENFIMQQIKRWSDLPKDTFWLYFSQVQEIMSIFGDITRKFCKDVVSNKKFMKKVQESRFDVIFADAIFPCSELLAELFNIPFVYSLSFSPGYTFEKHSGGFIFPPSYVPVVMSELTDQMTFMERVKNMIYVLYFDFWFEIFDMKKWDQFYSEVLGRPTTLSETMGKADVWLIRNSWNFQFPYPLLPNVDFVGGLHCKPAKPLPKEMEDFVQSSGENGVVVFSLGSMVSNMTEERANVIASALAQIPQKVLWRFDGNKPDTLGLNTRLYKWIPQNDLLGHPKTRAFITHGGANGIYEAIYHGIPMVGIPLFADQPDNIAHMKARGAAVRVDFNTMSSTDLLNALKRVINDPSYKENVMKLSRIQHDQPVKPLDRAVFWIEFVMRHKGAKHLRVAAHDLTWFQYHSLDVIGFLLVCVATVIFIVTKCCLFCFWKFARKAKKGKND
Measurement description: Inhibition of zidovudine glucuronidation in human liver microsomes
Type: biochemical
Test parameters: liver lot 062101; inhibitor 500 μM
Below, each of the molecules is paired with its reported residual metabolism (percentage of control), zidovudine glucuronidation value.
Property: residual metabolism (percentage of control), zidovudine glucuronidation

> print(dat)
                                    molecule                               measured.on  recorded.measurement
 1  CCCOC(=O)c1cc(O)c(O)c(O)c1 [Propyl gallate]  UGT enzymes of human liver microsomes (Homo sapiens, UniProt P16662)              77 (2) %
 2  CC/C(=C(/CC)c1ccc(O)cc1)c1ccc(O)cc1 [Diethylstilbestrol, reference compound]  UGT enzymes of human liver microsomes (Homo sapiens, UniProt P16662)               0 (0) %
 3  O=C(O[C@@H]1Cc2c(O)cc(O)cc2O[C@@H]1c1cc(O)c(O)c(O)c1)c1cc(O)c(O)c(O)c1 [Epigallocatechin gallate]  UGT enzymes of human liver microsomes (Homo sapiens, UniProt P16662)              18 (1) %
 4    C=CC(C)(O)CCC=C(C)C (stereo not drawn)  UGT enzymes of human liver microsomes (Homo sapiens, UniProt P16662)              73 (5) %
 5  O=C(O)c1cc(-c2ccc(F)cc2F)ccc1O [Diflunisal, reference compound]  UGT enzymes of human liver microsomes (Homo sapiens, UniProt P16662)              74 (2) %
 6  CC1=C(/C=C/C(C)=C/C=C/C(C)=C/CO)C(C)(C)CCC1  UGT enzymes of human liver microsomes (Homo sapiens, UniProt P16662)              76 (2) %
 7  Cc1cc(=O)oc2cc(O)ccc12 [4-Methylumbelliferone, reference compound]  UGT enzymes of human liver microsomes (Homo sapiens, UniProt P16662)              81 (2) %
 8  Oc1cc(O)c2c(c1)O[C@H](c1cc(O)c(O)c(O)c1)[C@H](O)C2 [Epigallocatechin]  UGT enzymes of human liver microsomes (Homo sapiens, UniProt P16662)              90 (3) %
 9                           COc1cc(CO)ccc1O  UGT enzymes of human liver microsomes (Homo sapiens, UniProt P16662)              95 (5) %
10  O=C(O[C@@H]1Cc2c(O)cc(O)cc2O[C@@H]1c1ccc(O)c(O)c1)c1cc(O)c(O)c(O)c1 [Epicatechin gallate]  UGT enzymes of human liver microsomes (Homo sapiens, UniProt P16662)              28 (1) %
11                       C=CCc1ccc(O)c(OC)c1  UGT enzymes of human liver microsomes (Homo sapiens, UniProt P16662)              84 (2) %
12                          COc1cc(C=O)ccc1O  UGT enzymes of human liver microsomes (Homo sapiens, UniProt P16662)              81 (4) %
13  CCCCCCCCOC(=O)c1cc(O)c(O)c(O)c1 [Octyl gallate]  UGT enzymes of human liver microsomes (Homo sapiens, UniProt P16662)              54 (3) %
14        COc1cc(CNC(=O)CCCC/C=C/C(C)C)ccc1O  UGT enzymes of human liver microsomes (Homo sapiens, UniProt P16662)              57 (4) %
15  COc1cc(CNC(=O)CCCCCCC(C)C)ccc1O [Dihydrocapsaicin]  UGT enzymes of human liver microsomes (Homo sapiens, UniProt P16662)              50 (1) %
